systemName: PDE10A1 (AB 020593) (Homo sapiens, UniProt Q9Y233)
Construct: made in house; host or cells: baculovirus / SF21 insect cells (gene synthesized by Entelechon GmbH)
Sequence (Q9Y233 other isoform, or with tags, fused parts or gaps): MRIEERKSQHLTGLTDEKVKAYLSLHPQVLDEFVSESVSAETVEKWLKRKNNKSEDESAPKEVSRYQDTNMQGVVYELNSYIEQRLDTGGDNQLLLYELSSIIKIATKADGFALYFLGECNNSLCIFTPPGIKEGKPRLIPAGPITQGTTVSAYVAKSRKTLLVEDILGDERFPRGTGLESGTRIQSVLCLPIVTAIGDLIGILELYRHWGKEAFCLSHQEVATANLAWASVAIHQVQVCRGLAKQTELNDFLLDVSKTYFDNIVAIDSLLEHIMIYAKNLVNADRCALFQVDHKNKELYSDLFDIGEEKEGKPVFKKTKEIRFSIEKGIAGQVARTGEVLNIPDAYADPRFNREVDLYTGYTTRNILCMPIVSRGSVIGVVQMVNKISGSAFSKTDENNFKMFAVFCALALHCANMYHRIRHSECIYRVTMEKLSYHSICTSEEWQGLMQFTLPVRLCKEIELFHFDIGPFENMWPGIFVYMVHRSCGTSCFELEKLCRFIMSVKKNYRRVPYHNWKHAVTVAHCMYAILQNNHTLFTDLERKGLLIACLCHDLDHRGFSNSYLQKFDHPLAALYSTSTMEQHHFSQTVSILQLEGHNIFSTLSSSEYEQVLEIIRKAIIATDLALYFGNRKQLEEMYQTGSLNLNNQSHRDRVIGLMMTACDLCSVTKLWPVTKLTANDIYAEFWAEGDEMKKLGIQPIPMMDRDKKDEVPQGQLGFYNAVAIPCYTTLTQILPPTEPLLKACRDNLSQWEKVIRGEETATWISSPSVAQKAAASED
procedureText: Inhibition of recombinant PDE10A (baculovirus/SF21 system)
Type: biochemical
conditionSummary: recombinant cytosolic PDE10A, 0.1 μM [3H]-cAMP, 37° C., 30 minutes, SPA; read-out: PDE10A IC50
resultType: IC50

1) CCc1ncc2nnc3ccc(OC)nc3n12 [Example 3] ... 4460 nM
2) COc1ccc2nnc3c(C)nc(-c4cccc(OC)c4F)n3c2n1 [Example 18] ... 160 nM
3) COc1ccc2nnc3c(C)nc(-c4ccncc4)n3c2n1 [Example 44] ... 348 nM
4) COc1ccc2nnc3c(C)nc(-c4cnc(F)c(C)c4)n3c2n1 [Example 67] ... 226 nM
5) COc1ccc2nnc3c(C)nc(-c4ccc(C)cc4F)n3c2n1 [Example 69] ... 49.9 nM
6) Cc1nc(-c2cc(Cl)ccc2Cl)n2c1nnc1ccc(N3CCCC3)nc12 [Example 120] ... 48 nM
7) CCC(C)c1nc(C)c2nnc3ccc(OC)nc3n12 (stereo not shown) [Example 12] ... 94.8 nM
8) COc1ccc2nnc3c(C)nc(-c4ccc(Cl)cc4Cl)n3c2n1 [Example 88] ... 15 nM
9) COc1ccc2nnc3c(C)nc(-c4cnccc4OC)n3c2n1 [Example 47] ... 178 nM
10) Cc1nc(-c2ccccc2Cl)n2c1nnc1ccc(O)nc12 [Example 117] ... 27.7 nM
11) Cc1nc(-c2cc(Cl)ccc2Cl)n2c1nnc1ccc(Cl)nc12 [Example 118] ... 228 nM
12) COc1ccc2nnc3c(C)nc(-c4ccc(F)cc4C)n3c2n1 [Example 57] ... 64.4 nM
13) CCOc1cccc(-c2nc(C)c3nnc4ccc(OC)nc4n23)c1F [Example 38] ... 617 nM
14) COc1ccc2nnc3c(C)nc(-c4sc(C)nc4C)n3c2n1 [Example 54] ... 64.5 nM
15) COc1ccc2nnc3c(C)nc(-c4cc(Cl)ccc4OC)n3c2n1 [Example 98] ... 86.9 nM
16) COc1ccc2nnc3c(C)nc(-c4cncc(F)c4)n3c2n1 [Example 43] ... 367 nM
17) COc1ccc2nnc3c(C)nc(-c4cccc(Cl)c4C)n3c2n1 [Example 94] ... 69.2 nM
18) COc1ccc(C)c(-c2nc(C)c3nnc4ccc(OC)nc4n23)c1 [Example 100] ... 55.6 nM
19) COc1ccc2nnc3c(C)nc(-c4cc(OC(F)(F)F)ccc4Cl)n3c2n1 [Example 76] ... 149 nM
20) COc1ccc2nnc3c(C)nc(-c4cscc4C)n3c2n1 [Example 77] ... 43.6 nM
21) COc1ccc2nnc3c(C)nc(-c4ccccc4C)n3c2n1 [Example 101] ... 46.1 nM
22) COc1ccc2nnc3cnc(-c4ccccc4Cl)n3c2n1 [Example 8] ... 454 nM
23) COc1ccc2nnc3c(C)nc(-c4cccc(F)c4C)n3c2n1 [Example 56] ... 35.6 nM
24) CCc1ccccc1-c1nc(C)c2nnc3ccc(OC)nc3n12 [Example 35] ... 59.4 nM
25) CCc1nc(C)c2nnc3ccc(OC)nc3n12 [Example 2] ... 297 nM
26) COc1ccc(-c2nc(C)c3nnc4ccc(OC)nc4n23)c(Cl)c1 [Example 89] ... 62.8 nM
27) COc1ccc(OC)c(-c2nc(C)c3nnc4ccc(OC)nc4n23)c1 [Example 24] ... 60.8 nM
28) CCOc1ncccc1-c1nc(C)c2nnc3ccc(OC)nc3n12 [Example 14] ... 391 nM
29) COc1ccc(F)c(-c2nc(C)c3nnc4ccc(OC)nc4n23)c1 [Example 19] ... 9.83 nM
30) COc1ccnc2c1nnc1c(C)nc(-c3cccnc3C)n12 [Example 116] ... 15.1 nM
31) COc1ccc2nnc3c(C)nc(-c4cc(C(C)=O)ccc4Cl)n3c2n1 [Example 49] ... 403 nM
32) COc1ccc2nnc3c(C)nc(-c4ccc(Cl)c(Cl)c4)n3c2n1 [Example 92] ... 231 nM
33) COc1cccc(-c2nc(C)c3nnc4ccc(OC)nc4n23)c1 [Example 58] ... 37.7 nM
34) COc1cc(OC)cc(-c2nc(C)c3nnc4ccc(OC)nc4n23)c1 [Example 26] ... 120 nM
